Origin of measurements: PubChem BioAssay (NCI)

Test system: TK-10 renal
Test description: NCI-60 one-dose screen, 48 h
Assay conditions: 10 µM unless noted
Compounds without any hit were thinned out: in the full panel of roughly 83,000, 20% have a hit. Activity calls are given as the source filed them. The calls were made as follows: active = growth percent below 10; inactive = the rest.
Labels: class 1 for active, class 0 for inactive

Compound	Class label
CCO/C=N/NC(=O)c1ccncc1	class 0
Cc1ccc(Oc2nc3ccccc3cc2-c2nnc(Cn3c(COc4ccccc4)nc4ccccc43)o2)cc1	class 0
CCn1cc(C(=O)O)c(=O)c2cc(F)c(N3CCN(S(=O)(=O)c4cccc5ccccc45)CC3)cc21	class 0
CCCCCCCCCCn1cc[n+](C)c1	class 1
O=C1N=C(c2c(-c3[nH]c(=O)c4ccc(Br)cc4c3O)c(O)c3ccccc3c2O)C(=O)c2cc(Br)ccc21	class 1
CCC(c1cccc(Br)c1)C(C(=O)O)c1ccc(OC)cc1 (stereo not given)	class 0
Cc1nn(-c2ccc(Cl)cc2)c(=O)n1CCOc1ccccc1Cl	class 0
CC/C=C\C[C@H](O)C/C=C1/C(=O)C(Cl)=C[C@@H]1C/C=C\CCCC(=O)O	class 0
Clc1ccc(/C=C/c2nc(N3CCOCC3)c3nc(Cl)c(Cl)cc3n2)cc1	class 0
CCC1CCc2nc3sc(C(=O)Nc4ccccc4F)c(N)c3cc2C1 (stereo not given)	class 0

---

Some molecules, each annotated with its measured growth.
System: HT29 colon
Test description: NCI-60 one-dose screen, 48 h (100 = growth as untreated, 0 = no growth, -100 = all killed)
Assay conditions: 10 µM unless noted
About 83,000 compounds went through this panel and 20% of them were active in at least one assay; those are over-represented in the sample as a whole. Calls of active or inactive are those of the source. Rule for the calls: active = growth percent below 10; inactive = the rest.
Parameter measured: growth

Molecule	Observed value
O=C(O)Cc1ccc2c(c1)Cc1cccnc1O2	99.8% (inactive)
O=C(c1ccncc1)N1N=C(c2ccc(Cl)cc2)CC1c1c[nH]c2ccccc12 (stereo not given)	101% (inactive)
CCN1C(=O)/C(=c2\sc3n(c2=O)C2C(NN=3)N(CC)C(=S)N2CC)c2ccccc21 (stereo not given)	111% (inactive)
Nc1nc(N)c2nc(CNc3ccc(C(=O)CC(CCC(=O)O)C(=O)O)cc3)cnc2n1 (stereo not given)	36.7% (inactive)
CCOP(=O)(CCN1CCN(CCCCCOc2cc3c(cc2OC)C(=O)N2CCC[C@H]2C=N3)CC1)OCC	80.4% (inactive)
CCn1cc(C(=O)O)c(=O)c2cc(F)c(N3CCN(S(=O)(=O)c4ccc(Cl)cc4Cl)CC3)cc21	1.87% (active)
O=C(Nc1ccc(OCc2nnc(-c3ccc(Cl)cc3)o2)c(F)c1)Nc1ccc(Cl)c(Cl)c1	32.8% (inactive)
O=Nc1c(-c2c(O)[nH]c3ccc([N+](=O)[O-])cc23)[nH]c2ccc(O)cc12	69.2% (inactive)
CN(C)c1ccc(-c2ccc(-c3ccc(C(=N)N)cn3)o2)cc1	-61.5% (active)
COc1cc(NC(=O)CCl)ccc(=O)c1	70.1% (inactive)
O=C(Nc1ccc(F)c(Cl)c1)c1n[nH]c(=O)c2ccccc12	112% (inactive)
CCn1cc(C2NC(=O)c3cc(F)ccc3N2)c2cccc(Cl)c21 (stereo not given)	3.35% (active)
CCc1c(C(=O)Nc2ccc3ccccc3c2)[nH]c(C)c1C(C)=O	93.7% (inactive)
COc1cc(Br)c(OC)cc1Br	96.4% (inactive)
N#Cc1ccc(NC(=O)c2ccc3cccnc3c2O)cc1	30.7% (inactive)
COc1cc(C2C=C(C)N=C3SC(C)=NN32)cc(OC)c1OC (stereo not given)	102% (inactive)
CCC(=O)Nc1ccccc1C#C/C=C\C#Cc1ccccc1SC	29.6% (inactive)
COc1cccc(/C=C/C(=O)c2sc(Nc3ccc(O)cc3)nc2C)c1	82% (inactive)
CC(Cc1nnc(SCC(=O)Nc2ccc(I)cc2)n1N)c1ccccc1 (stereo not given)	111% (inactive)
COc1ccc2c(c1)C(C)Cc1c(N(C)C)ncnc1N2C (stereo not given)	11.6% (inactive)
CC(C)[C@H](CO)Nc1nc(Nc2ccc(C(=O)NCCNS(=O)(=O)c3cccc4c(N(C)C)cccc34)c(Cl)c2)c2ncn(C(C)C)c2n1	9.2% (active)
COc1ccc(C(=O)/C=C/c2cc(C(=O)c3cc(OC)c(OC)c(OC)c3)ccc2OC)cc1	27.7% (inactive)
COc1cccc(-c2nc3sccn3c2-c2ccnc(NCCCNS(=O)(=O)c3ccc(F)cc3)n2)c1	26.7% (inactive)
CCNc1nc(N2CC(=O)Nc3cc(OC)ccc32)c2ccccc2n1	0.723% (active)
Clc1ccc2c(c1)NC1(CCSc3ccccc31)n1nccc1-2 (stereo not given)	90.9% (inactive)
CCC1=C[C@@H]2CN(C1)Cc1c([nH]c3ccccc13)[C@@](C(=O)OC)(c1cc3c(cc1OC)N(C=O)[C@H]1[C@@](O)(C(=O)OC)[C@H](OC(C)=O)[C@]4(CC)[C@@H]5C[C@@H]5CN5CC[C@]31[C@@H]54)C2	-5.12% (active)
COC1=CC(c2ccc[nH]2)=N/C1=C\c1[nH]c(C)c(CCCn2cc(CCCCCCCCC[C@@H]3Cc4cc(O)ccc4C4CC[C@]5(C)[C@@H](O)CC[C@H]5C43)nn2)c1C (stereo not given in full)	23.6% (inactive)
COc1cccc(C2CC(=O)Nc3c2c(C)nn3-c2nc3ccccc3[nH]2)c1OC (stereo not given)	86.6% (inactive)
COc1cc2nc(Cl)nc(NCCO)c2cc1OC	110% (inactive)
CC[C@H](C)[C@@H]1NC(=O)[C@H]([C@@H](C)O)NC(=O)C(Cc2ccccc2)NC(=O)[C@@H]2CCCN2C(=O)C(C(C)C)NC(=O)C(Cc2ccccc2)NC(=O)CNC(=O)[C@@H]2CCCN2C1=O (stereo not given in full)	76.2% (inactive)
O=C1CCCCC=C1C[N+](=O)[O-]	83.3% (inactive)
Cc1cc2c(c(=O)o1)C(c1ccc(OC(=O)N3CCOCC3)cc1)C(C#N)=C(N)O2 (stereo not given)	104% (inactive)
CCOc1ccc(/C=C/C=N/NC(N)=S)cc1	62.1% (inactive)
CSc1ccccc1C#C/C=C\C#Cc1ccccc1N1CCCCC1=O	94.9% (inactive)
COc1ccccc1OCC(=O)Nc1sc2c(c1C(N)=O)CCC2	74.1% (inactive)
CCOC(=O)c1cc(/C(=N\O)c2cc(OC)c(OC)c(OC)c2)n2cc(C)cc(C)c12	6.89% (active)
CC(=O)Nc1nc(C(=O)N2N=C(C)/C(=C/c3ccccc3)C2=O)cs1	97.5% (inactive)
O=C(CN1CCOCC1)Nc1ccc(-c2nc3ccccc3s2)cc1	103% (inactive)
Cc1ccc2nc(-c3c(CCCO)noc3N)[nH]c(=O)c2c1	113% (inactive)
CN(C)c1ccc(C2CC(c3ccccc3)=NN2/C=C2\SC(=O)NC2=O)cc1 (stereo not given)	108% (inactive)

---

Test system: UO-31 renal
Test description: NCI-60 one-dose screen, 48 h
Assay conditions: 10 µM unless noted
About 83,000 compounds went through this panel and 20% of them were active in at least one assay; those are over-represented in the sample as a whole. Active and inactive are the calls of the source. How the source made its calls: active means growth percent below 10; inactive means the rest.
Labels: class 1 = active, class 0 = inactive

Molecule	Class label
COc1cc(-c2cc(/C=C3\CCCCC3=O)[nH]n2)cc(OC)c1OC	class 0
O=S(=O)(NCCCNc1cc(-c2cn(-c3ccccc3)nc2-c2cccc(O)c2)ccn1)c1cccc(F)c1	class 0
COc1cc(/C=C/C(=O)c2ccc(NC(=O)CN3CCN(c4cc5c(cc4F)c(=O)c(C(=O)O)cn5C4CC4)CC3)cc2)cc(OC)c1OC	class 1
O=C(CCl)NCCNc1nccc(Nc2ccc(S(=O)(=O)Nc3ccccn3)cc2)n1	class 0
O=S(=O)(NCCCNc1cc(-c2cn(-c3ccccc3)nc2-c2cccc(O)c2)ccn1)c1cccc2ccccc12	class 0
Cc1cc(N/C=c2\sc3ncnn3c2=O)no1	class 0
CCCCCc1c(C)[nH]c(/C=c2\[nH]/c(=C3/C=c4ccccc4=N3)cc2OC)c1C	class 1
Nc1cccc2c1CN(C1CCC(=O)NC1=O)C2=O (centres undefined)	class 0
CCn1cc(C(=O)O)c(=O)c2cc(F)c(N3CCN(S(=O)(=O)c4c(C)cc(C)cc4C)CC3)cc21	class 0
COc1ccc(C2CC(c3cccs3)=NN2c2ccc(S(=O)(=O)NC(=O)NCc3cccc(OC)c3)cc2)cc1 (centres undefined)	class 0
O=S(=O)(NCCNc1cc(-c2cn(-c3ccccc3)nc2-c2ccccc2)ccn1)c1ccc(F)cc1	class 0
O=S(=O)(NCCCNc1cc(-c2cn(-c3ccccc3)nc2-c2cccc(O)c2)ccn1)c1ccc(Br)cc1	class 1
CCN1C(=S)N(CC)C2Nn3c(s/c(=C4\C(=O)N(C)c5ccccc54)c3=O)=NC21 (centres undefined)	class 0
C[C@]12CC[C@@H]3c4cc(O)c(O)cc4CC[C@H]3[C@@H]1CC[C@@H]2O	class 0
Cc1nc2scc(-c3ccccc3)n2c(=O)c1CCO	class 0
COc1ncc(-c2ccc3ncnc(Nc4cccc(Cl)c4)c3c2)cc1NS(=O)(=O)C1CC1	class 0
COc1cc2c(cc1OC)C1(C)N(CC2)C(=O)OC1(C)C (centres undefined)	class 0
CSc1ccccc1C#C/C=C\C#Cc1ccccc1N1CCCC1=O	class 0
ClC1=C(Cl)C(Cl)=C(Cl)C1=Cc1ccc(Cl)cc1Cl	class 1
COc1ccc(C(=O)c2cc(OC)c(OC)c(OC)c2)cc1/C=C/C(=O)c1ccc2c(c1)OCO2	class 1
CCCS(=O)(=O)c1nc(NC2CC2)cc(-c2ccc3c(ccn3C3CC(C)(C)NC(C)(C)C3)c2)n1	class 1
Cc1cccc(-n2c(C)nc3ccc(NC(=O)NCCCl)cc3c2=O)c1	class 0
O=[N+]([O-])c1cc(S(=O)(=O)OCC2CO2)ccc1Cl (centres undefined)	class 0
COc1ccc(N=C2NN=C(c3ccc(F)cc3)CS2)cc1OC	class 0
